# Measurement target: EZH2 Mutant Y641N (Homo sapiens (Human), UniProt Q15910, Y641N)
# Sequence (Q15910 whole entry Y641N, looked up): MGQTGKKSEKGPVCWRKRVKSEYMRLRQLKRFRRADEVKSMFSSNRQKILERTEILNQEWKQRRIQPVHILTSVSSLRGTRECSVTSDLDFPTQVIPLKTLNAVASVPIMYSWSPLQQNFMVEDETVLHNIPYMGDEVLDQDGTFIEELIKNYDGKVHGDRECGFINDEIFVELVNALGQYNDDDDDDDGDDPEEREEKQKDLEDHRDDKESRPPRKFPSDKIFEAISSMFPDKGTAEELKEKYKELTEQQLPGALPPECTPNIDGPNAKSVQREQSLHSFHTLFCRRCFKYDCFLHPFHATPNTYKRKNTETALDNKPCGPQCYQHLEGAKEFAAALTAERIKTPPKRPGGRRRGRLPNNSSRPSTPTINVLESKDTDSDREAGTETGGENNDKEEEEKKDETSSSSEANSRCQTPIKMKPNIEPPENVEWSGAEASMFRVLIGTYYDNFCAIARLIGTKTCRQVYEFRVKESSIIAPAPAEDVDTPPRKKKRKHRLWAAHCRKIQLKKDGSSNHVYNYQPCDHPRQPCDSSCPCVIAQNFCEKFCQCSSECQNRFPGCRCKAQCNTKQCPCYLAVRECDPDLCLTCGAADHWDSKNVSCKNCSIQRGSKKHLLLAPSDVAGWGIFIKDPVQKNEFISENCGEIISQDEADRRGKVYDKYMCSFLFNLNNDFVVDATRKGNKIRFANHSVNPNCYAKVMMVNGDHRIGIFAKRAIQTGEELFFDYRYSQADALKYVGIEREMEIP
# Sequence (O75530 whole entry partner, looked up): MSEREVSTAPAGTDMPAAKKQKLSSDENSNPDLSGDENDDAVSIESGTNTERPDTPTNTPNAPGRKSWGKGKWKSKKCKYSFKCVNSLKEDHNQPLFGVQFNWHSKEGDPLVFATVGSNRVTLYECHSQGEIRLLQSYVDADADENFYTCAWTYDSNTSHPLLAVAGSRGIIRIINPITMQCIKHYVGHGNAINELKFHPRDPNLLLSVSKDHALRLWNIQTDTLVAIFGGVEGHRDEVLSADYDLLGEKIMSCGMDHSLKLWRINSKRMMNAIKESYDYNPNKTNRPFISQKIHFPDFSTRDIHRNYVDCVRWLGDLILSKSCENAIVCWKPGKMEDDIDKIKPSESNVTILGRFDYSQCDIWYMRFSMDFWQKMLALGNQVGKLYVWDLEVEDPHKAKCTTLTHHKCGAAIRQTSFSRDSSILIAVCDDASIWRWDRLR
# Sequence (Q15022 whole entry partner, looked up): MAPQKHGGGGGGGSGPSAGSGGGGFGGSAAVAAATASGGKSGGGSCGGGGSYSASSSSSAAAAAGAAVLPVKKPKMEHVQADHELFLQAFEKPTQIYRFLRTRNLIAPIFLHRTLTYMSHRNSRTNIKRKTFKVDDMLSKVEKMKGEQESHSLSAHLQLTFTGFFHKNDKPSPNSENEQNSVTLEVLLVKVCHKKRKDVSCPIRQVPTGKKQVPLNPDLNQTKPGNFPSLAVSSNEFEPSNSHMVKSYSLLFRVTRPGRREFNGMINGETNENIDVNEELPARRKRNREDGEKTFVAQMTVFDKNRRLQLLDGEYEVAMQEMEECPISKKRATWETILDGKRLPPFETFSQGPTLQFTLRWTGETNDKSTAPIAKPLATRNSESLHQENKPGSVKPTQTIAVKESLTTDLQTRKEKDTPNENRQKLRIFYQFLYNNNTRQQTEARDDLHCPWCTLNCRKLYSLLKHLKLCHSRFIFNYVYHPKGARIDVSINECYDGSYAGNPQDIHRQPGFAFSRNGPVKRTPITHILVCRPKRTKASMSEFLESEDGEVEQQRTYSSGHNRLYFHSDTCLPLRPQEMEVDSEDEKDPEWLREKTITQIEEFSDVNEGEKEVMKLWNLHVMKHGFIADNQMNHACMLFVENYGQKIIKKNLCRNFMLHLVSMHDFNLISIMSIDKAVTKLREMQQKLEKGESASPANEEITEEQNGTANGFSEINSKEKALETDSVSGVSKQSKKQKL
# Sequence (Q09028 whole entry partner, looked up): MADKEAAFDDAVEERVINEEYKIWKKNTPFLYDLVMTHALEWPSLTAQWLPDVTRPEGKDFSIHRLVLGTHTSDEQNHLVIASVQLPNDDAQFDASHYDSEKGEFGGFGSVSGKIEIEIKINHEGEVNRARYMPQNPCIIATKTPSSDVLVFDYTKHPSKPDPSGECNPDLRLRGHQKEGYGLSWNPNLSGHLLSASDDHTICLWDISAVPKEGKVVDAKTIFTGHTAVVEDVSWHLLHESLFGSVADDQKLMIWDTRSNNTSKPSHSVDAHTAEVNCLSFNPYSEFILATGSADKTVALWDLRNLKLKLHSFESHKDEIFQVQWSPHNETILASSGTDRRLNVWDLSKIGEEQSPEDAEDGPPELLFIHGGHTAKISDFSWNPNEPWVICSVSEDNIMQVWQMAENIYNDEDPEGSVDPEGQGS
# Protocol notes: EZH2 Mutant Y641N nucleosome assay
# Format: biochemical
# Run conditions: PRC2 4-protein complex 6 nM, 1.5 μM SAM, HeLa oligonucleosomes; read-out: EZH2 Mutant Y641N Nucleosome assay IC50
Attribute measured: IC50 (nM)

{"columns": ["Compound", "Test value"],
 "data": [
  ["COc1cc(C)[nH]c(=O)c1CN1CCc2c(Cl)cc(C(C)C3CN(C)C3)c(Cl)c2C1=O (single isomer, unassigned) [Example 88]", 122]
]}

A: COC(c1cc(Cl)c2c(c1Cl)C(=O)N(Cc1c(C)cc(C)[nH]c1=O)CC2)C1CCS(=O)(=O)C1 (single isomer, unassigned) [Example 149]
B: COc1cc(C)[nH]c(=O)c1CN1CCc2c(C)cc(C(C)C3COC3)c(Cl)c2C1=O (single isomer, unassigned) [Example 197]
Thinking about recorded IC50 values, which is higher, A or B ? Record your answer as the label of the chosen record.
A
(A: 2270 nM, B: 62 nM)

----------
# Measurement target: EZH2 Mutant Y641N (Homo sapiens (Human), UniProt Q15910, Y641N)
# Protocol notes: EZH2 Mutant Y641N nucleosome assay
# Format: biochemical
# Run conditions: PRC2 4-protein complex 6 nM, 1.5 μM SAM, HeLa oligonucleosomes; read-out: EZH2 Mutant Y641N Nucleosome assay IC50
Attribute measured: IC50 (nM)

These recorded examples may help you get a feel for the data.
{"columns": ["Molecule", "Test value"],
 "data": [
  ["Cc1cc(C)c(CN2CCc3c(Cl)cc([C@H](CO)[C@@H]4CCCO4)c(Cl)c3C2=O)c(=O)[nH]1", 16],
  ["COC(c1cc(C)c2c(c1Cl)C(=O)N(Cc1c(C)cc(C)[nH]c1=O)CC2)C1CCN(C(=O)CO)CC1 (single isomer, unassigned) [Example 169]", 70],
  ["COC(c1ccc2c(c1Cl)C(=O)N(Cc1c(C)cc(C)[nH]c1=O)CC2)C1CCOC1 (single isomer, unassigned) [Example 133]", 8640],
  ["COC(c1cc(Cl)c2c(c1Cl)C(=O)N(Cc1c(C)cc(C)[nH]c1=O)CC2)C1CCN(C(=O)CC#N)CC1 (single isomer, unassigned) [Example 61]", 127]
]}

P: COC(c1cc(Cl)c2c(c1Cl)C(=O)N(Cc1c(C)cc(C)[nH]c1=O)CC2)C1CN(S(C)(=O)=O)C1 (single isomer, unassigned) [Example 177]
Q: COC(c1cc(Cl)c2c(c1Cl)C(=O)N(Cc1c(C)cc(C)[nH]c1=O)CC2)C1CN(C(=O)CO)C1 (single isomer, unassigned) [Example 128]
Lab note: record which item had the higher IC50, P or Q . Could you answer with the label of the item you picked?
Q

----------
# Measurement target: UniProt:Q15910
# Protocol notes: WT EZH2 nucleosome assay (10X SAM, high SAM conditions)
# Type: biochemical
# Run conditions: 15 uM SAM, Ki app from competitive inhibition fit, read-out: WT EZH2 Nucleosome assay (10X SAM) Ki
Attribute measured: Ki (nM)

See these solved cases before continuing.
{"columns": ["Molecule", "Readout unit", "Ki"],
 "data": [
  ["COC(c1cc(C)c2c(c1Cl)C(=O)N(Cc1c(C)cc(C)[nH]c1=O)CC2)C1CCN(C(=O)CO)CC1 (single isomer, unassigned) [Example 168]", "nM", 0.7],
  ["COc1cc(C)[nH]c(=O)c1CN1CCc2c(Cl)cc(C(C)C3CN(C)C3)c(Cl)c2C1=O (single isomer, unassigned) [Example 88]", "nM", 28],
  ["COc1cc(C)[nH]c(=O)c1CN1CCc2c(C)cc([C@H](OC)[C@H]3CCOC3)c(Cl)c2C1=O (single isomer, unassigned)", "nM", 0.2],
  ["Cc1cc(C)c(CN2CCc3c(Cl)cc(C(F)=C4CN(C(=O)CO)C4)c(Cl)c3C2=O)c(=O)[nH]1", "nM", 17]
]}

a: Cc1cc(C)c(CN2CCc3ccc(C(CO)C4CCOC4)c(Cl)c3C2=O)c(=O)[nH]1 (single isomer, unassigned) [Example 97]
b: COc1cc(C)[nH]c(=O)c1CN1CCc2c(C)cc(C(C)C3CN(S(C)(=O)=O)C3)c(Cl)c2C1=O (single isomer, unassigned) [Example 192]
Lab note: record which item had the higher Ki, a or b . Kindly give the label for the entry you pick.
b
(b: 117 nM, a: 3 nM)

----------
# Measurement target: WT EZH2 (Homo sapiens (Human), UniProt Q15910)
# Sequence (Q15910 whole entry, looked up): as the sequence (Q15910 whole entry Y641N, looked up) above, with N641Y counted along it
# Sequence (O75530 whole entry partner, looked up): as the sequence (O75530 whole entry partner, looked up) above
# Sequence (Q15022 whole entry partner, looked up): as the sequence (Q15022 whole entry partner, looked up) above
# Sequence (Q09028 whole entry partner, looked up): as the sequence (Q09028 whole entry partner, looked up) above
# Protocol notes: WT EZH2 nucleosome assay (10X SAM, high SAM conditions)
# Assay type: biochemical
# Run conditions: 15 uM SAM, Ki app from competitive inhibition fit, read-out: WT EZH2 Nucleosome assay (10X SAM) Ki
Attribute measured: Ki (nM)

// known answers, use as guide
{"columns": ["Compound", "Attribute measured", "Test value"],
 "data": [
  ["COc1cc(C)[nH]c(=O)c1CN1CCc2c(Cl)cc(C(C)C3CCN(C(=O)CO)CC3)c(Cl)c2C1=O (single isomer, unassigned) [Example 200]", "Ki", 0.1],
  ["Cc1cc(C)c(CN2CCc3c(Cl)cc(C(C)N4CCOCC4)c(Cl)c3C2=O)c(=O)[nH]1 (single isomer, unassigned; (-)) [Example 91]", "Ki", 1],
  ["Cc1cc(C)c(CN2CCc3c(Cl)cc(C(C)C4CN(C)C4)c(Cl)c3C2=O)c(=O)[nH]1 (single isomer, unassigned) [Example 188]", "Ki", 14],
  ["COC(c1cc(Cl)c2c(c1Cl)C(=O)N(Cc1c(C)cc(C)[nH]c1=O)CC2)C(C)O (stereo not drawn) [Example 102]", "Ki", 18]
]}

A: COc1cc(C)[nH]c(=O)c1CN1CCc2c(Cl)cc(C(OC)C3CCN(C(C)=O)CC3)c(Cl)c2C1=O (single isomer, unassigned) [Example 123]
B: COC(c1cc(Cl)c2c(c1Cl)C(=O)N(Cc1c(C)cc(C)[nH]c1=O)CC2)[C@@H](C)CO (single isomer, unassigned) [Example 143]
C: COc1cc(C)[nH]c(=O)c1CN1CCc2c(C)cc(C(C)C3CN(S(C)(=O)=O)C3)c(Cl)c2C1=O (single isomer, unassigned) [Example 191]
Write the entries in order, lowest recorded Ki first. Answer format: list of labels, ordered as asked.
A, C, B
(A: 0.2 nM, C: 0.3 nM, B: 276 nM)

1: COc1cc(C)[nH]c(=O)c1CN1CCc2c(Cl)cc(C(C)C3CN(C)C3)c(Cl)c2C1=O (single isomer, unassigned) [Example 87]
2: COC(c1cc(Br)c2c(c1Cl)C(=O)N(Cc1c(C)cc(C)[nH]c1=O)CC2)C1CN(C(=O)CO)C1 (single isomer, unassigned) [Example 139]
3: COC(c1cc(C)c2c(c1Cl)C(=O)N(Cc1c(C)cc(C)[nH]c1=O)CC2)C1CN(C2COC2)C1 (single isomer, unassigned) [Example 182]
Arrange the 3 compounds from largest to smallest Ki. API: response body holds the labels in the requested order.
3, 2, 1
(3: 2230 nM, 2: 0.5 nM, 1: 0.01 nM)

----------
# Measurement target: WT EZH2 (Homo sapiens (Human), UniProt Q15910)
# Protocol notes: WT EZH2 nucleosome assay
# Assay type: biochemical
# Run conditions: WT EZH2 Nucleosome assay IC50 (μM), PRC2 4-protein complex 4 nM, 1.5 μM SAM, HeLa oligonucleosomes
Attribute measured: IC50 (µM)

{"columns": ["Molecule", "Readout unit", "IC50"],
 "data": [
  ["CCC(CO)c1cc(Cl)c2c(c1Cl)C(=O)N(Cc1c(C)cc(C)[nH]c1=O)CC2 (single isomer, unassigned) [Example 29]", "µM", 0.017],
  ["Cc1cc(C)c(CN2CCc3c(Cl)cc([C@@H](CO)[C@H]4CCOC4)c(Cl)c3C2=O)c(=O)[nH]1 (single isomer, unassigned) [Example 3]", "µM", 0.066]
]}

1: Cc1cc(C)c(CN2CCc3c(Cl)cc(C(CO)C4CCOCC4)c(Cl)c3C2=O)c(=O)[nH]1 (racemic) [Example 31]
2: CCC(O)c1cc(Cl)c2c(c1Cl)C(=O)N(Cc1c(C)cc(C)[nH]c1=O)CC2 (single isomer, unassigned) [Example 27]
3: CCC(CO)c1cc(Cl)c2c(c1Cl)C(=O)N(Cc1c(C)cc(C)[nH]c1=O)CC2 (racemic) [Example 20]
4: COC(c1cc(Cl)c2c(c1Cl)C(=O)N(Cc1c(C)cc(C)[nH]c1=O)CC2)C1CCN(C(=O)CO)CC1 (single isomer, unassigned) [Example 35]
I would appreciate it if you could sort these 4 molecules by IC50, starting from the smallest number. I'd appreciate it if you listed the labels in the requested order.
4, 1, 3, 2
